target: T1, human myostatin (mature, recombinant; R&D Systems) (human, UniProt O14793 267-375)
T1 construct: biotinylated in the mRNA display selection; also called GDF-8; mature myostatin
T1 sequence: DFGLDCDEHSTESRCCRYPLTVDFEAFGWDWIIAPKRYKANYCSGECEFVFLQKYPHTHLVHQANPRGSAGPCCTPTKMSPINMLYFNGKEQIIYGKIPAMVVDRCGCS
assay_notes: SPR format A, 25C
From the text: Anti-human Fc antibody (Biacore/GE) was immobilized on a Biacore CM5 chip via NHS/EDC coupling according to the manufacturer's instructions. […] A concentration range of anti-myostatin Adnectin was applied across all flow cells in HBSP running buffer. Regeneration of the chip surface between cycles was accomplished with two 30 second pulses of 3M MgCl₂. Kinetic traces of reference-subtracted sensorgrams were fit to a 1:1 binding model using Biaevaluation software.
The binders listed here are annotated with their Kd.
Value expressed in nM; do not type the unit.

Worked set:
>>> result_value("ATI-1359 [40K 2-branch PEG] (designed binder, 40K 2-branch PEG on the Cys of the EGSGC tail) MGVSDVPRDLEVVAATPTSLLISWTLPHAGRAHYYRITYGETGGNSPVQEFTVPGRGVTATISGLKPGVDYTITVYAVTVTTTKVIHYKPISINYRTEGSGC")
7.9
>>> result_value("ATI-1275 [N-ethylmaleimide] (designed binder, N-ethylmaleimide on the Cys of the EGSGC tail, cysteine mutant of 2524_D09) MGVSDVPRDLEVVAATPTSLLISWYLPYPAHMNYYRITYGETGGNSPVQEFTVPGRGLTATISGLKPGVDYTITVYAVTLTKSQILHHRPISINYRTEGSGCHHHHHH")
0.15
>>> result_value("ATI-1276 [40K 2-branch PEG] (designed binder, 40K 2-branch PEG on the Cys of the EGSGC tail, cysteine mutant of 2524_D09) MGVSDVPRDLEVVAATPTSLLISWYLPYPAHMNYYRITYGETGGNSPVQEFTVPGRGLTATISGLKPGVDYTITVYAVTLTKSQILHHRPISINYRTEGSGCHHHHHH")
4.18

// Kd lookup, key: 2987_H07 (designed binder) MGVSDVPRDLEVVAATPTSLLISWTLPHAGRAHYYRITYGETGGNSPVQEFTVPGRGVTATISGLKPGVDYTITVYAVTVTTTKVIHYKPISINYRTEIDKPSQHHHHHH
0.99
